The measurements presented in this section are drawn from the supplement of paper PMC7858590.

- Tested on: human monocyte-derived macrophages (M0)
- assayProtocol: cell shape (eccentricity) Z-score vs DMSO control; higher = more elongated, M2-like morphology
- assaySetup: 20 µM; 24 h; macrophage state: M0 (M-CSF)
In all, about 3,800 compounds were measured (“cell shape (eccentricity) Z-score vs DMSO control”: median about 1.1, lowest 2% from about -4.7 on). Shown is part of a subset that was picked to be rich in the lowest values.
endpoint: cell shape (Z-score)
Give bare numbers.

Solved entries:
1) COc1ccc(C(=C2C(=O)Nc3ccccc32)c2ccc(OC)cc2)cc1	1.61
2) COc1ccc(C(=O)/C=C/c2ccccc2)cc1	3.14
3) CC1CC(=O)C2C(O)(C1)CC(O)C13OC21C(=O)c1cccc(O)c1C3O (centres undefined)	3.39

Attention now turns to another entry.
Q: Find the measured cell shape (Z-score): item "Nc1ncnc2c1c(-c1cccc(OCc3ccccc3)c1)cn2[C@H]1C[C@H](CN2CCCC2)C1" , target or system human monocyte-derived macrophages (M0).
Ans: 6.27
